target: KRas^WT (Homo sapiens, UniProt P01116); construct: Biotinylated KRas (corresponding to amino acids 1-169, produced at Accelegan Inc.); biotin (biotinylated); purchased Accelegan Inc; experiment: KRas binding assay (TR-FRET tracer displacement), KRas WT; settings: TR-FRET tracer displacement, KRas WT
Sequence (P01116 1-169 isoform P01116-2): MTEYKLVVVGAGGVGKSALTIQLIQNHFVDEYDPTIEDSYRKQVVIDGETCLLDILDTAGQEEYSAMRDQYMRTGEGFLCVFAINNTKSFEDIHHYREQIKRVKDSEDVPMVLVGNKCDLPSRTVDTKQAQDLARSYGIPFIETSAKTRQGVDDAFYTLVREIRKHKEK
I'd appreciate it if you could supply IC50 values for the items below.
Please answer using a numeric value trailed by its unit.

COMPOUND	IC50
CN(C)C(=O)c1cc2n(n1)CCCN(c1nc(OCC34CCCN3CCC4)nc3c(F)c(-c4c(C5CC5)c(Cl)cc5[nH]ncc45)ncc13)C2 [Example 881]	22 nM
Cc1c(Cl)cc2[nH]ncc2c1-c1ncc2c(N3CCC[C@]4(C3)NC(=O)NC4=O)nc(OCC34CCCN3CCC4)nc2c1F [Example 766]	980 nM

Would you be so kind as to report IC50 for each listed record?
1. CN(C)C(=O)c1cc2n(n1)CCCN(c1nc(OC[C@@]34CCCN3C[C@H](F)C4)nc3c(F)c(-c4c5ccccc5cc5[nH]ncc45)ncc13)C2 [Example 761]
2. Oc1cc2ccccc2c(-c2ncc3c(N4C[C@@H]5C[C@H](C4)[C@H](O)C5)nc(OC[C@@]45CCCN4C[C@H](F)C5)nc3c2F)c1F [Example 751]
3. CC1(O)COCCN(c2nc(OCC34CCCN3CCC4)nc3c(F)c(-c4cc(O)cc(Cl)c4C4CC4)ncc23)C1 (racemic) [Example 740]
4. CCc1c(F)ccc2cc(O)cc(-c3ncc4c(N5C[C@@H]6C[C@H](C5)[C@H](O)C6)nc(OC[C@@H]5CC[C@H]6COCCN65)nc4c3F)c12 [Example 945]

Reply |
1. 106 nM
2. 167 nM
3. 9 nM
4. 3 nM

* * *

biological target: KRas^G12S (Homo sapiens, UniProt P01116, G12S); construct: Biotinylated KRas (corresponding to amino acids 1-169, produced at Accelegan Inc.); biotin (biotinylated); purchased Accelegan Inc; assay: KRas binding assay (TR-FRET tracer displacement), KRas G12S; settings: TR-FRET tracer displacement, KRas G12S
Sequence (P01116 1-169 isoform P01116-2 G12S): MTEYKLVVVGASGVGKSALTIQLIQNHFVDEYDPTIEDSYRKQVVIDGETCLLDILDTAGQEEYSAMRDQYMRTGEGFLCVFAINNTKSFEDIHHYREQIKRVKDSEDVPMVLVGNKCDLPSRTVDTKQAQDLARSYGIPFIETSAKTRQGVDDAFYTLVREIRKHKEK
MEASUREMENT_TYPE: IC50
# output: number + unit

Example compounds with recorded IC50:
COMPOUND	IC50
Oc1cc2ccccc2c(-c2ncc3c(N4C[C@@H]5C[C@H](C4)[C@H](O)C5)nc(OC[C@@]45CCCN4C[C@H](F)C5)nc3c2F)c1Cl	100 nM
Cc1cc2[nH]ncc2c(-c2ncc3c(N4CC5CC(O)C(C5)C4)nc(OCC45CCCN4CCC5)nc3c2F)c1C (stereo not drawn)	494 nM

Then there is this compound:
Lab note: C[C@@]1(O)CCCN(c2nc(OCC34CCCN3CCC4)nc3c(F)c(-c4c(C5CC5)c(Cl)cc5[nH]ncc45)ncc23)C1 gave IC50 of 13 nM

* * *

test system: KRas-mediated phosphorylation of ERK in MKN1 cells; experiment: Inhibition of KRas-mediated phosphorylation of ERK (Cisbio HTRF pERK), MKN1 cells; type: cell-based; details: Homo sapiens, MKN-1
MEASUREMENT_TYPE: IC50 (nM)
Numbers only, in nM.

Solved entries (count: 2):
COMPOUND	IC50, nM
C#Cc1c(F)ccc2cc(O)cc(-c3ncc4c(N5CCC[C@@](C)(O)C5)nc(OC[C@]56CCCN5[C@H](COC(=O)N(C)C)CC6)nc4c3F)c12	14
CCc1c(F)ccc2cc(O)cc(-c3ncc4c(N5CCCC6(CNC(=O)N6)C5)nc(OC[C@]56CCCN5[C@H](COC(=O)N(C)C)CC6)nc4c3F)c12 (stereo partly drawn)	21

The compound identified as C[C@@H]1C[C@@H]1c1c(Cl)cc(O)cc1-c1ncc2c(N3CCC[C@@](C)(O)C3)nc(OC[C@@]34CCCN3C[C@H](F)C4)nc2c1F registered its IC50 at 1

* * *

target: KRas^G12R (Homo sapiens, UniProt P01116, G12R); construct: Biotinylated KRas (corresponding to amino acids 1-169, produced at Accelegan Inc.); biotin (biotinylated); purchased Accelegan Inc; assay: KRas binding assay (TR-FRET tracer displacement), KRas G12R
Sequence (P01116 1-169 isoform P01116-2 G12R): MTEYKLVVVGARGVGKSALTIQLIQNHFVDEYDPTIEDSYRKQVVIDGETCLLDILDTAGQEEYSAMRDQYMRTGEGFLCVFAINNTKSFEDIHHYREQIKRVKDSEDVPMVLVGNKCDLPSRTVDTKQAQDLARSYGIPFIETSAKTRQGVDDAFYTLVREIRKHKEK
Exercise: state measured IC50 for each of the compounds provided.
Answers are plain numbers, in nM.

COMPOUND	IC50 / nM
CCc1c(F)ccc2cc(O)cc(-c3ncc4c(N5CCCC(C6CCC(=O)N6)C5)nc(OC[C@@]56CCCN5C[C@H](F)C6)nc4c3F)c12 (stereo partly drawn) [Example 620]	376
CCc1c(F)ccc2cc(O)cc(-c3ncc4c(N5CCCC(N6CCCCS6(=O)=O)C5)nc(OC[C@@]56CCCN5C[C@H](F)C6)nc4c3F)c12 (stereo partly drawn) [Example 664]	2

Alright, here's another compound for you.
# IC50 (compound: CCc1c(F)ccc2cc(O)cc(-c3ncc4c(N5C6CNC(=O)CC5COC6)nc(OC[C@@]56CCCN5C[C@H](F)C6)nc4c3F)c12 (stereo partly drawn) [Example 599] ) is 23

* * *

For each of the compounds below, state its IC50.
target: KRas^G12D (Homo sapiens, UniProt P01116, G12D); construct: Biotinylated KRas (corresponding to amino acids 1-169, produced at Accelegan Inc.); biotin (biotinylated); purchased Accelegan Inc; test: KRas binding assay (TR-FRET tracer displacement), KRas G12D
Sequence (P01116 1-169 isoform P01116-2 G12D): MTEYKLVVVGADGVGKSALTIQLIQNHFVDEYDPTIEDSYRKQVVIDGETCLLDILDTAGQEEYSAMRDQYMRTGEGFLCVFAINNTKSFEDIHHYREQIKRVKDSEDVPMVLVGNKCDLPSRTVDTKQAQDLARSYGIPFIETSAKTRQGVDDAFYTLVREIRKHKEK
Answers are plain numbers, in nM.

COMPOUND	MEASUREMENT_TYPE	ENDPOINT_VALUE
CCc1c(F)ccc2cc(O)cc(-c3ncc4c(NCc5cn(C(=O)N(C)C)nc5N)nc(OC[C@@]56CCCN5C[C@H](F)C6)nc4c3F)c12	IC50	13
CCc1c(F)ccc2cc(O)cc(-c3ncc4c(N5CCCC6(C5)NC(=O)NC6=O)nc(N5CC(C)(N)C5)nc4c3F)c12 (centres unmarked)	IC50	5
CCc1c(F)ccc2cc(O)cc(-c3ncc4c(N5CCC[C@]6(C5)C[C@H](O)C6)nc(OC[C@@]56CCCN5[C@H](COC(=O)N(C)C)CC6)nc4c3F)c12	IC50	2
CCc1c(F)ccc2cc(O)cc(-c3ncc4c(NCc5cc(C(=O)N(C)C)n(CC6CC(O)C6)n5)nc(OC[C@@]56CCCN5C[C@H](F)C6)nc4c3F)c12 (some centres unmarked)	IC50	357
CCc1c(F)ccc2cc(O)cc(-c3ncc4c(N5C[C@H]6CC[C@@H](C5)[C@@H]6O)nc(OC[C@@]56CCCN5C[C@H](F)C6)nc4c3F)c12	IC50	5

Could I get IC50 for every one of these entries?
1. Cc1cc2[nH]ncc2c(-c2ncc3c(N4CCCC5(C4)NC(=O)NC5=O)nc(OCC45CCCN4CCC5)nc3c2F)c1C (centres unmarked)
2. CCc1c(F)ccc2cc(O)cc(-c3ncc4c(N5CC6CCC(CC(=O)NC)(C6)C5)nc(OC[C@@]56CCCN5C[C@H](F)C6)nc4c3F)c12 (some centres unmarked)
3. Cc1cc2[nH]nnc2c(-c2ncc3c(N4CC5C(=O)NC(=O)C5C4)nc(OCC45CCCN4CCC5)nc3c2F)c1C (centres unmarked)
4. Cc1cc2[nH]nnc2c(-c2ncc3c(N4CCCC5(CNC(=O)N5)C4)nc(OCC45CCCN4CCC5)nc3c2F)c1C (centres unmarked)
5. CCc1c(F)ccc2cc(O)cc(-c3ncc4c(N5Cc6n[nH]c(C(=O)N(C)C)c6C5)nc(OC[C@@]56CCCN5C[C@H](F)C6)nc4c3F)c12
6. Cc1cc2[nH]nnc2c(-c2ncc3c(N4CCOC[C@@](C)(O)C4)nc(OCC45CCCN4CCC5)nc3c2F)c1C
7. O=C1CC2(CCCN(c3nc(OC[C@@]45CCCN4C[C@H](F)C5)nc4c(F)c(-c5cc(O)cc6ccc(F)c(Cl)c56)ncc34)C2)C(=O)N1 (some centres unmarked)
8. CCc1c(F)ccc2cc(O)cc(-c3ncc4c(N5CCC[C@@](C)(O)C5)nc(OCC5(CN(C)C)CC5(C)C)nc4c3F)c12 (some centres unmarked)

Reply |
1: 60; 2: 12; 3: 1080; 4: 1190; 5: 1640; 6: 2180; 7: 2; 8: 5

* * *

target: KRas^G13D (Homo sapiens, UniProt P01116, G13D); construct: Biotinylated KRas (corresponding to amino acids 1-169, produced at Accelegan Inc.); biotin (biotinylated); purchased Accelegan Inc; assay: KRas binding assay (TR-FRET tracer displacement), KRas G13D; conditions: TR-FRET tracer displacement, KRas G13D
Sequence (P01116 1-169 isoform P01116-2 G13D): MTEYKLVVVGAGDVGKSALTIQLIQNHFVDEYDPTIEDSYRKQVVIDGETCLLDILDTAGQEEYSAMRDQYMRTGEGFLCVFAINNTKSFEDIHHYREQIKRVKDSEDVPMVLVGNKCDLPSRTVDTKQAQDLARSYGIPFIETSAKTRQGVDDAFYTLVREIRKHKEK
Field: IC50. Provide a value for each of the molecules that follow.
One number for each entry, in nM.

# example entries with known answers
MOLECULE	UNIT_OF_MEASURE	IC50
Cc1cc2[nH]ncc2c(-c2ncc3c(N4CCC[C@]5(C4)NC(=O)NC5=O)nc(OCC4(CN(C)C)CC4)nc3c2F)c1C	nM	60
Cc1cc2sncc2c(-c2ncc3c(N4CCC[C@@](C)(O)C4)nc(OCC45CCCN4CCC5)nc3c2F)c1C	nM	470
O=C1NCC2(CCCN(c3nc(OCC45CCCN4CCC5)nc4c(F)c(-c5c6ccccc6cc6[nH]ncc56)ncc34)C2)N1 (stereo not shown)	nM	13
Nc1nc2c(-c3ncc4c(N5CCCC6(C5)NC(=O)NC6=O)nc(OCC56CCCN5CCC6)nc4c3F)ccc(F)c2s1 (stereo not shown)	nM	93
CN(C)C(=O)c1cc2n(n1)CCCN(c1nc(OCC34CCCN3CCC4)nc3c(F)c(-c4c(C5CC5)c(Cl)cc5[nH]ncc45)ncc13)C2	nM	25
Oc1cc(-c2ncc3c(N4C[C@@H]5C[C@H](C4)[C@H](O)C5)nc(OC[C@@]45CCCN4C[C@H](F)C5)nc3c2F)c2ccccc2c1Cl	nM	2410
Oc1cc(-c2ncc3c(N4C[C@@H]5C[C@H](C4)[C@H](O)C5)nc(OC[C@@]45CCCN4C[C@H](F)C5)nc3c2F)c2cccc(F)c2c1	nM	21
O[C@@H]1C[C@H]2C[C@@H]1CN(c1nc(OC[C@@]34CCCN3C[C@H](F)C4)nc3c(F)c(-c4cccc5ccccc45)ncc13)C2	nM	585

Go through the list and state IC50 for each entry.
1. CC1(O)COCCN(c2nc(OCC34CCCN3CCC4)nc3c(F)c(-c4cc(O)cc(Cl)c4C4CC4)ncc23)C1 (racemic)
2. CN(C)C(=O)c1cc2n(n1)CCCN(c1nc(OC[C@@]34CCCN3C[C@H](F)C4)nc3c(F)c(-c4c(C5CC5)c(Cl)cc5[nH]ncc45)ncc13)C2

Reply |
8
15
